protocol: in vitro
setup_conditions: human, hela cells, % viability
viability at 28.5 h, 10 µM by entry:
Give just the numeric value; % need not be written.

O=C(c1cccs1)N1CCC(c2n[nH]c3ncccc23)CC1
92.3
C=C(C)CN1CCN(CC(CC(=O)NCc2ccccc2)C(=O)O)CC1 (centres unmarked)
98.1
O=C1CCC(=O)N1CCn1c(=O)n(C(=O)CCC2CCCC2)c2ccccc21
96.8
O=C(C1=C(O)C(=O)N(Cc2cccnc2)C1c1cccnc1)c1ccccc1 (centres unmarked)
99.5

API: the following record is the query input.
Query: // viability at 28.5 h, 10 µM lookup, key: COc1ccc(C2CC(Cn3cc(C(C)=O)c(=O)[nH]c3=O)ON2C)cc1 (centres unmarked)
Reply: 95.7

====

protocol: in vitro
setup_conditions: human, hela cells, % viability
quantity_kind: viability at 28.5 h, 10 µM (%)
Give just the numeric value; % need not be written.

Worked cases, viability at 28.5 h, 10 µM given:
Cc1c(NC(=O)CCCC(=O)O)cccc1C(=O)O
95
CC1CN(S(=O)(=O)N2CCOCC2)CCN1S(=O)(=O)N1CCOCC1 (stereo not shown)
101
Cc1ccc(S(=O)(=O)N2CCC(n3c(=O)[nH]c4ccccc43)CC2)cc1Cl
90.8
CCc1cc2c(NCc3ccccc3)ncnc2s1
91.4
Cc1cc(C(=O)N2CCN(c3ncccn3)CC2)n[nH]1
111
CC1(C)C2CCC1(CS(=O)(=O)N(Cc1ccccc1)Cc1ccccc1)C(=O)C2 (stereo not shown)
107

Query: // viability at 28.5 h, 10 µM lookup, key: Fc1cc(F)c(OCCCCOc2nccnc2N2CCNCC2)cc1F [CBK028624T]
Reply: 105

Query: // viability at 28.5 h, 10 µM lookup, key: CCC1CCc2c(sc(NC(=O)C3C4CCC(C4=C(C)C)C3C(=O)O)c2C(=O)OC)C1 (stereo not shown)
Reply: 102

Query: // viability at 28.5 h, 10 µM lookup, key: FC(F)(F)c1cccc(OCCOc2nccnc2N2CCNCC2)c1 [CBK014518G]
Reply: 105

Query: // viability at 28.5 h, 10 µM lookup, key: COc1ccc(-c2cncc(N3CCCC3CO)n2)cc1 (stereo not shown)
Reply: 112

====

protocol: in vitro
setup_conditions: human, hela cells, % viability
quantity_kind: viability at 28.5 h, 10 µM

Worked cases, viability at 28.5 h, 10 µM given:
CC(=O)N(C)c1ccc(NS(=O)(=O)c2cc(C)c(Cl)cc2C)cc1
94.3%
O=C(CCN1CCN(CCO)CC1)Nc1ccc(F)c(F)c1
100%
Nc1nnc(SCC(=O)Nc2ccc3c(c2)OCCO3)s1
95.6%
CN(C)S(=O)(=O)c1ccc(C(=O)C2=C(O)C(=O)N(CCN3CCOCC3)C2c2ccco2)cc1 (stereo not shown)
93.4%
Cc1sc2ncn(CC(=O)NC3CCOc4ccccc43)c(=O)c2c1C (stereo not shown)
86.3%

Query: // viability at 28.5 h, 10 µM lookup, key: O=C(c1nccc2ccccc12)N1CCN(Cc2ccccc2)CC1
Reply: 98%

Query: // viability at 28.5 h, 10 µM lookup, key: COc1ccc(CCCC(=O)Nc2ccccc2N2CCNCC2)cc1OC [CBK028283T]
Reply: 107%

Query: // viability at 28.5 h, 10 µM lookup, key: O=C(Nc1cccc(-c2nc3ccccc3s2)c1)c1ccc(S(=O)(=O)N2CCCC2)cc1
Reply: 96.7%

Query: // viability at 28.5 h, 10 µM lookup, key: CN(C)C(=O)CO[C@@H]1CO[C@H]2[C@@H]1OC[C@@H]2Nc1nccc(-c2cccs2)n1
Reply: 109%

Query: // viability at 28.5 h, 10 µM lookup, key: O=c1cc(-c2ccccc2)nc(SCc2nc(-c3cccs3)no2)[nH]1
Reply: 107%

Query: // viability at 28.5 h, 10 µM lookup, key: C=CCNS(=O)(=O)c1ccc(NC(=O)Cc2cccc3ccccc23)cc1
Reply: 109%

Query: // viability at 28.5 h, 10 µM lookup, key: Cc1ccc(CNC(=O)C2CC(=O)N(c3cccc(C)c3C)C2)cc1 (stereo not shown)
Reply: 97.5%

Query: // viability at 28.5 h, 10 µM lookup, key: Cc1ccc(CN2C[C@@H]3CC[C@@](O)(c4ncccc4C)[C@@H]3C2)o1
Reply: 82.6%

Query: // viability at 28.5 h, 10 µM lookup, key: O=c1cc(NCc2ccncc2)c2ccccc2o1
Reply: 93.5%

Query: // viability at 28.5 h, 10 µM lookup, key: Cc1nc(Nc2ccc(Cl)cc2)nc(N2CCN(C)CC2)n1
Reply: 95.4%

Query: // viability at 28.5 h, 10 µM lookup, key: COc1ccc(C(=O)N2CCC3(CCN(CCCCC4NC(=O)NC4=O)C3)C2)cc1OC (stereo not shown)
Reply: 83%

Query: // viability at 28.5 h, 10 µM lookup, key: COc1ccccc1CN(CCCn1ccnc1)Cc1cccn1C
Reply: 92.2%

Query: // viability at 28.5 h, 10 µM lookup, key: NS(=O)(=O)c1ccc(C(=O)Nc2cnc(-c3ccc(F)cc3)c(-c3ccsc3)n2)cc1
Reply: 98.8%

Query: // viability at 28.5 h, 10 µM lookup, key: Cc1ccc(CC2CCCN(C(=O)NCc3cnn(C)c3)C2)cc1 (stereo not shown)
Reply: 91.8%

Where do these numbers come from? They come from paper PMC12040169.
